Assay: Toxicity liver stage against HepG2, at 10uM
Assay type: cell-based
Design: test concentration 10 uM, cell line HepG2-A16-CD81EGFP
Conditions: human, HepG2-A16-CD81EGFP cells; read-out: INHIBITION
Readout label: cytotoxicity at 10 µM (%)
Answers are plain numbers, in %.

// below: answered compounds
Cc1cccc(NC(=O)CN(C)C(=O)c2ccc(-n3cccc3)nc2)n1
-4.4
Cc1cccc(COC[C@]23COC[C@H]2CN(c2ncccn2)C3)n1
-76.2
Cc1c(C)n(Cc2ccncc2)c2nc3c(c(N)c12)CCCC3
1.4

// each listed compound needs a value for cytotoxicity at 10 µM
1. CCn1cc(-n2cc3nc(N4CCN(C)CC4)[nH]cc-3c2=O)cn1
2. COCc1nccc(C2CCCN(Cc3ccc(SC)cc3)C2)n1 (configuration not stated)
3. c1cc(CN2CC[C@H]3CO[C@H](CN4CCOCC4)[C@H]3C2)cs1
4. CS(=O)(=O)N1CCc2ccc(=O)n(CCN3CCCC3)c2CC1
5. CC(C)(O)CCc1cccc(C(=O)NCCC2=CSC3=NCCCN23)c1
6. c1ccc(-c2cc(CN3CCCCCC3c3ccco3)on2)nc1 (configuration not stated)

Result:
1.54
23.4
4.91
0.108
9.17
-6.19

Quick one: give me cytotoxicity at 10 µM for each item below, same order please.
1. Cc1nn(CCNS(=O)(=O)c2ccccc2)c(C)c1Cl
2. Fc1ccccc1C1NCCc2cc3c(cc21)OCCO3 (configuration not stated)
3. Cc1noc([C@@H]2CCCN2C(=O)C2CCN(CC(N)=O)CC2)n1
4. COCCN1CCC(CNC(=O)C2(c3ccc(Br)cc3)CCCC2)C1 (configuration not stated)
5. CCOC(=O)N1[C@@H](c2ccco2)[C@@H](C(=O)NC)C[C@]12CCCCNC2=O

Result:
1: -5.26; 2: -10.2; 3: 3.96; 4: -5.3; 5: -4.57
